Settings: in ethyl acetate, 293.15 K
Assay metric: solubility (mole fraction)
Write the value as a bare number.

Incoming: Any idea what its solubility (mole fraction) is? The compound is O=C(N[C@H](Cc1ccccc1)C(=O)O)OCC1c2ccccc2-c2ccccc21
Outgoing: 0.00342

* * *

Conditions: in isopropanol, 303.15 K
Assay metric: solubility (mole fraction)
Give the figure only, with no unit attached.

Incoming: Consider the compound shown here: O=C(N[C@H](Cc1ccccc1)C(=O)O)OCC1c2ccccc2-c2ccccc21 What is its recorded solubility (mole fraction)?
Outgoing: 0.00155

* * *

Details: in methyl acetate, 318.15 K
Assay metric: solubility (mole fraction)

Incoming: Consider the compound O=C(N[C@H](Cc1ccccc1)C(=O)O)OCC1c2ccccc2-c2ccccc21 and give its measured solubility (mole fraction).
Outgoing: 0.00884
